system: FT3469 (normal neural stem cell line); assay: surviving fraction (nuclei count normalised to DMSO); higher = more cells surviving (less toxic); details: 333.3 nM; exposure time: 72 h;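 note: nuclei counted by high-content imaging of Hoechst-stained cells in laminin-coated 384-well plates, relative to 0.1% DMSO vehicle wells, with staurosporine as cell-death control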
Structures can show the parent of a compound that is named as a salt.
readout.name: surviving fraction
Answers are plain numbers.

// solved cases for surviving fraction follow
input: Any idea what surviving fraction was measured for `COc1cc2c(NC3CCN(C(C)C)CC3)nc(C3CCCCC3)nc2cc1OCCCN1CCCC1` ?
output: 0.953

input: Entry COc1cccc2c1C(=O)c1c(O)c3c(c(O)c1C2=O)C[C@@](O)(C(C)=O)C[C@@H]3O[C@H]1C[C@H](N)[C@H](O)[C@H](C)O1 [Daunorubicin hydrochloride] has what surviving fraction?
output: 0.593

input: Suppose we examine the molecule `COc1ccc2c(c1)CC[C@@H]1[C@@H]2CC[C@]2(C)[C@@H](NCCCCCCN3C(=O)CCC3=O)CC[C@@H]12` ; what surviving fraction value has been reported?
output: 1.06

input: Quick check: surviving fraction of `CC(C)CC(=O)N[C@H](C(=O)N[C@H](C(=O)N[C@@H](CC(C)C)[C@@H](O)CC(=O)N[C@@H](C)C(=O)N[C@@H](CC(C)C)[C@@H](O)CC(=O)O)C(C)C)C(C)C` ?
output: 1.07

input: Consider the molecule shown here: CC[C@]1(O)C[C@@H]2CN(CCc3c([nH]c4ccccc34)[C@@](C(=O)OC)(c3cc4c(cc3OC)N(C)[C@H]3[C@@](O)(C(=O)OC)[C@H](OC(C)=O)[C@]5(CC)C=CCN6CC[C@]43[C@@H]65)C2)C1 [Vinblastine sulfate] What is its recorded surviving fraction?
output: 0.372

input: # query: surviving fraction of entry COc1ccc(/C=C\c2cc(OC)c(OC)c(OC)c2)cc1OP(=O)(O)O [Fosbretabulin Disodium]
output: 0.745

input: Param item = `CCc1c2c(nc3ccc(OC(=O)N4CCC(N5CCCCC5)CC4)cc13)-c1cc3c(c(=O)n1C2)COC(=O)[C@]3(O)CC` ; retrieve measured surviving fraction.
output: 0.739

input: What does the record list as surviving fraction for CC(C)N1CCN(c2ccc(OCC3COC(Cn4cncn4)(c4ccc(Cl)cc4Cl)O3)cc2)CC1 (stereo not drawn) ?
output: 0.987

input: Reported surviving fraction, molecule `COc1cc2c(c(OC)c1OC)-c1ccc(OC)c(=O)cc1[C@@H](NC(C)=O)CC2` : ____
output: 0.263

input: Give the measured surviving fraction of CCCCCCCCCCCCCC(=O)O[C@@H]1[C@@H](C)[C@@]2(O)[C@@H](C=C(CO)C[C@]3(O)C(=O)C(C)=C[C@@H]23)[C@@H]2C(C)(C)[C@]12OC(C)=O [Phorbol 12-myristate 13-acetate] .
output: 0.832

Each molecule below has a reported value. Please supply its surviving fraction.
1. CC(C)NCC(O)COc1cccc2ccccc12 (stereo not drawn) [Propranolol hydrochloride]
2. CCOC(=O)OC(C)OC1=C(C(=O)Nc2ccccn2)N(C)S(=O)(=O)c2ccccc21 (stereo not drawn)
3. CC(C)C[C@H](NC(=O)[C@H](Cc1ccccc1)C[C@@H](O)[C@H](Cc1ccccc1)NC(=O)OC(C)(C)C)C(=O)N[C@@H](Cc1ccccc1)C(N)=O

output:
1. 1.01
2. 1.04
3. 0.882
